pKi: −log10 of the molar value. Where a name gives a salt, the structure may show the parent alone.
As a worked illustration, we turn to pKi data collected for human adenosine A2A receptors expressed in HEK-293 cells (Homo sapiens, UniProt P29274).
Observed Property: pKi

1) CCOc1nc(C(=O)c2cccs2)c2sccc2n1 ... 7.32
2) CCCc1nc(C(C#N)c2ccccn2)c2sccc2n1 (stereo not drawn) ... 6.63
3) CNc1nc(C(=O)c2cccs2)c2sccc2n1 ... 7.82
4) O=C(c1cc(Br)cs1)c1nc(C(F)(F)F)nc2ccsc12 ... 6.10
5) Cc1nc(C(C#N)c2ccccn2)c2sccc2n1 (stereo not drawn) ... 6.28
6) O=C(c1cccs1)c1nc(NCCNC(=O)C2CCCCC2)nc2ccsc12 ... 8.15
7) O=C(c1ccccc1)c1nc(Cl)nc2ccsc12 ... 6.06
8) O=C(c1cccs1)c1nc(NCC(O)CO)nc2ccsc12 (racemic) ... 8.15
9) Cc1ccsc1C(=O)c1nc(NCCO)nc2ccsc12 ... 8.15
10) O=C(c1cccs1)c1nc(NCCCn2ccnc2)nc2ccsc12 ... 8.70
11) O=C(c1ccccc1Cl)c1nc(C(F)(F)F)nc2ccsc12 ... 6.23
12) C[C@@H](O)CNc1nc(C(=O)c2cccs2)c2sccc2n1 ... 8.22
13) COc1nc(C(=O)c2cccs2)c2scc(C)c2n1 ... 6.44
14) CN1CCN(c2nc(C(=O)c3cccs3)c3sccc3n2)CC1 ... 6.06
15) O=C(c1ccc(Br)s1)c1nc(C(F)(F)F)nc2ccsc12 ... 7.00
16) CN(C)CCNc1nc(C(=O)c2cccs2)c2sccc2n1 [Example 66, dihydrochloride] ... 6.66
17) Cc1cc(C(=O)c2nc(C(F)(F)F)nc3ccsc23)oc1C ... 7.05
18) Cc1ccccc1C(=O)c1nc(C(F)(F)F)nc2ccsc12 ... 6.48
19) CSc1nc(C(=O)c2cccs2)c2sccc2n1 ... 6.82
20) Cc1ccc(C(=O)c2nc(C(F)(F)F)nc3ccsc23)cc1 ... 6.27
21) C[C@@H](CO)Nc1nc(C(=O)c2cccs2)c2sccc2n1 ... 8.15
22) CSc1nc(C(=O)c2cccs2)c2scc(C)c2n1 ... 6.24
23) Cc1ccsc1C(=O)c1nc(C(F)(F)F)nc2ccsc12 ... 7.59
24) NCCNc1nc(C(=O)c2cccs2)c2sccc2n1 [Example 55, dihydrochloride] ... 7.11
25) CCOC(=O)CCCNc1nc(C(=O)c2cccs2)c2sccc2n1 ... 8.10
26) O=C(c1ccc(Cl)s1)c1nc(C(F)(F)F)nc2ccsc12 ... 7.51
27) O=C(c1cccs1)c1nc(Cl)nc2ccsc12 ... 7.04

Reference source for all entries: patent US6787541B1
